Recorded values, source the supplement of paper PMC9170038.

Test system: MS2 coat protein
Test: apparent KD of MS2 coat protein; designed switch direction (-1 OFF switch, 1 ON switch): -1; higher = weaker reporter binding
Conditions: input ligand: FMN 200 uM
OBSERVATION TYPE: apparent KD of MS2 coat protein (µM)
Use µM as the unit, but write only the number.

Req: Need apparent KD of MS2 coat protein of AAUAUACAUGUAGGAUAUCUGCACGUGUAGUGCAGAGAAGGACAUGAGGAUCACCCAUGUAAUUAAGAUCAAUUAUUAAAUAUU [ENG1/3-B3] (Eterna round: R96, puzzle: Exclusion NG 1) , thanks.
Resp: 0.447

Req: What about UAUUUGCAAGCGAGAUCCCACAUGAGGAUCACCCAUGUUCUUGGAAAGUACAGAAUUACUGUACAAGCUCGUCUUAU [Winner reversed engineered 32] (Eterna round: R97, puzzle: Sensor, turn-off variant 1) ?
Resp: 0.0221

---

Test system: MS2 coat protein
Test: apparent KD of MS2 coat protein; designed switch direction (-1 OFF switch, 1 ON switch): -1; higher = weaker reporter binding
Settings: Eterna round: R95; input ligand: none
OBSERVATION TYPE: apparent KD of MS2 coat protein (nM)
Use nM as the unit, but write only the number.

• CGUACUAAAGUCAGGAUAUUGUCUCGGAUACGAAACAAGAAGGGACAUGAGGAUCACCCAUGUAGAUAGUACGA [Malc #30 mod 5] (puzzle: Brourd's mod of Exclusion 4) = 26.6
• AAGAAACAUGAGGAUCACCCAUGUGAGGAUAUGAAAAAUAAAAUAAAAUAAAUAAUAAUCAGAAGGCACAAAGG [Mat - Mod of Hog D7] (puzzle: Exclusion 1) = 42
• GAAAAGCUAGGAUAUACGAAAAAAAAGGGUAGAAAAAAAACACAUGAGGAUCACCCAUGUAGAAGGAGCAAAAG [salish99_ex2_r3_093] (puzzle: Exclusion 2) = 48.2

The record that follows has no apparent KD of MS2 coat protein shown yet.
Req: Need apparent KD of MS2 coat protein of UAUUAAACAUAGGAUAUCGAAUAUAUCAUUUAACGAGAAGGAUGAACAUGAGGAUCACCCAUGUGGUAUCAUGG [Mat - Exclusion 6 - JL Mod - D13] (puzzle: Exclusion 6) , thanks.
Resp: 410

---

System: MS2 coat protein
Experiment: apparent KD of MS2 coat protein; designed switch direction (-1 OFF switch, 1 ON switch): -1; higher = weaker reporter binding
Conditions: input ligand: FMN 200 uM
Classify as follows. Reported apparent KD of MS2 coat protein greater than or equal to 50 nM: Condition met. Reported apparent KD of MS2 coat protein below: Condition not met.

Previously resolved entries follow.
- AAAUAGAAUGAGGAUAUCGAAUUAUAUAUAGUACGAGAAGGCAUUACAUGAGGAUCACCCAUGUUUUGUUGGGA [JR_Ex6_Sub001] (Eterna round: R97, puzzle: Exclusion 6): Condition met
- ACGCCAGGAGGAUAUGCAAUAAGUAACAUGAGGAUCACCCAUGUUCGGGCGAUGCUCGUGGCAGAAGGCCUAGCCG [Edteonra] (Eterna round: R97, puzzle: Exclusion 5): Condition met
- GGAUCGAAUGUGAGGAUAUGCAGGUCCUUGGAUCUGCAGAAGGCACAUGAGGAUCACCCAUGUGAUACCGAUCC [Mat - Exclusion 4 - Eli Mod - D42] (Eterna round: R97, puzzle: Brourd's mod of Exclusion 4): Condition met
- AAGAUUCUCAUGAGCUGGAACAUGAGGAUCACCCAUGUGUGUUGCUUUUUGCUCAAGGAAUCCAUUUCGAUCUUAUA [Eternabot (L1) Solution 43] (Eterna round: R97, puzzle: Sensor, turn-off variant 1): Condition met

Req: Would you say GAAGUAUGAGUUAGGAUAUGAUGAUUUUUAUUAAAUCAGAAGGAACUUGAGGAUCACCCAAGUAAAGAAUUGGU [JR_BMEx4_Sub070] (Eterna round: R97, puzzle: Brourd's mod of Exclusion 4) shows apparent KD of MS2 coat protein at minimum 50 nM?
Resp: Condition not met

Req: What about AUAAUACAUGUAGGAUAUCUGCACGAUUAGUGCAGAGAAGGACAUGAGGAUCACCCAUGUAAUUAAGAUCAAUUAUUAAAUUAU [ENG1/3-D1] (Eterna round: R96, puzzle: Exclusion NG 1) ?
Resp: Condition met

Req: What about UGUGCUCUAGGAUAUGCGUAAGCUGAUACGUCAGCAGGUCUACAUGAGGAUCACCCAUGUAGAAGGAGAGUACU [jl-ex2-4.00] (Eterna round: R97, puzzle: Exclusion 2) ?
Resp: Condition not met

Req: What about AGAGGACAUGAGGAUCACCCAUGUAAGGAUAUGCGGAGAGUUUGGAGAGGUCGGGUAGGCAGAAGGUACAGGAG [JR_Exclu1_Sub050] (Eterna round: R96, puzzle: Exclusion 1) ?
Resp: Condition not met

Req: What about UAAGGACAUGAGGAUCACCCAUGUUAGGAUAUGCCGAGGGAGACCCGUGUUGACACUUGCAGAAGGAGUAUGGG [Eternabot (L1) Solution 25] (Eterna round: R97, puzzle: Exclusion 1) ?
Resp: Condition met

Req: What about AAAUCGGUAGAGGAUAUUGUACAGGAAACGGUGCAAGAAGGUUACACAUGAGGAUCACCCAUGUUAAAUAGCGA [EX6 #53] (Eterna round: R97, puzzle: Exclusion 6) ?
Resp: Condition not met

Req: What about GCACUUGAACAUGAGGAUCACCCAUGUGUUUUUCUUGUUCGGCAGGAUAUCGUCUAGCGCCAGGACGAGAAGGGCCAAUAAAAG [Ratiarveed] (Eterna round: R96, puzzle: Exclusion NG 3) ?
Resp: Condition met

Req: What about CUGAGCAGACGGAGAUCCAACAUGAGGAUCACCCAUGUCUCAAAAGCUUAUUGCUCGUCUUAUCCUCCUCUGUUCAC [Mat - Sensor, turn-off var - Eli Mod - D54] (Eterna round: R97, puzzle: Sensor, turn-off variant 1) ?
Resp: Condition not met

Req: What about ACUUCACAUGAGGAUCACCCAUGUGAGGAUAUCGUCGAGGAUGUAAUGCCAUCCGUGGCGAGAAGGCGCAUGGG [Exclusion 1 (Mod1.1 solution 40 by Eternabot)] (Eterna round: R97, puzzle: Exclusion 1) ?
Resp: Condition not met

Req: What about UAUUAGCAAGCGAGAUCCCACAUGAGGAUCACCCAUGUGCUCGCAUCCAGAAUUACUGGGUGCAAAGCUCGUCUUAU [Winner reversed engineered 8] (Eterna round: R97, puzzle: Sensor, turn-off variant 1) ?
Resp: Condition not met

Req: What about CGCAAGUUAGGAUAUGACGCGAAUUUCCGGCUUUGGCCGGAUCAGAAGGAACUUGAGGAUCACCCAAGUGGCCG [Adia] (Eterna round: R97, puzzle: Exclusion 4) ?
Resp: Condition not met

Req: What about GCACUGCGAGGAUAUACAUGAGGAUCACCCAUGUGUCGGCAGCCAUGUUAUUUCUAAUGUAGAAGGCGCGUAAA [JR_Ex3_Sub001] (Eterna round: R97, puzzle: Exclusion 3) ?
Resp: Condition met

Req: What about UUUCUUAAGUGGUCGCUUCACAUGAGGAUCACCCAUGUCGCCUCUAUGGCAUUAAAUACGAGCUUUUUGCUUGAAUU [Eternabot (L1) Solution 14] (Eterna round: R97, puzzle: Sensor, turn-off variant 1) ?
Resp: Condition met

---

Here, each record is paired with measured apparent KD of MS2 coat protein data.
Tested on: MS2 coat protein
Experiment: apparent KD of MS2 coat protein; designed switch direction (-1 OFF switch, 1 ON switch): -1; higher = weaker reporter binding
Settings: input ligand: microRNA oligo, concentration not stated
Number first, unit second.

* UGCAUGUAAGGAUAUGCAACCUGCGCUCAUUAGCAGGUCAAGCAGAAGGUACAUGAGGAUCACCCAUGUGUCCG [Tebisoma] (Eterna round: R96, puzzle: Exclusion 4) | 25.2 nM
* UUGUUAUGUGUAGGAUAUGCAUAUUAUUAUUAUGCAGAAGGACAUGAGGAUCACCCAUGUGUAUUGUUAUUAUAUAUUAUAUAU [Title] (Eterna round: R96, puzzle: Exclusion NG 1) | 17.1 nM
* UAAGAUUACCGAGGAUAUGCUGGUUUCUCUCAAGCAGAAGGCGGACUCAACAUGAGGAUCACCCAUGUAAGACGGGUACUAGAU [Ex NG1 #11] (Eterna round: R96, puzzle: Exclusion NG 1) | 76.6 nM
* AGCUGUGGCCGAGGAUAUCUAAACCUCAAAACCGAGGUAUACUCGGACAUGAGGAUCACCCAUGUAGAGAAGGCGGUCUCAGCA [Eli eng2 - 036] (Eterna round: R96, puzzle: Exclusion NG 2) | 190 nM

The record that follows has no apparent KD of MS2 coat protein shown yet.
Req: Need apparent KD of MS2 coat protein of AUAAAUCAUGUAGGAUAUGCGUGGCGAAGCUAUGCAGAAGGACAUGAGGAUCACCCAUGUUCUUCCGUCUGCGUACAGACGGAA [Mat - Exclusion NG 1 - Mod of JL - D39] (Eterna round: R96, puzzle: Exclusion NG 1) , thanks.
Resp: 28.5 nM
